# system tested: T1, GFP-Pif1 K264A (Saccharomyces cerevisiae, UniProt P07271 40-859, K264A)
# T1 sequence: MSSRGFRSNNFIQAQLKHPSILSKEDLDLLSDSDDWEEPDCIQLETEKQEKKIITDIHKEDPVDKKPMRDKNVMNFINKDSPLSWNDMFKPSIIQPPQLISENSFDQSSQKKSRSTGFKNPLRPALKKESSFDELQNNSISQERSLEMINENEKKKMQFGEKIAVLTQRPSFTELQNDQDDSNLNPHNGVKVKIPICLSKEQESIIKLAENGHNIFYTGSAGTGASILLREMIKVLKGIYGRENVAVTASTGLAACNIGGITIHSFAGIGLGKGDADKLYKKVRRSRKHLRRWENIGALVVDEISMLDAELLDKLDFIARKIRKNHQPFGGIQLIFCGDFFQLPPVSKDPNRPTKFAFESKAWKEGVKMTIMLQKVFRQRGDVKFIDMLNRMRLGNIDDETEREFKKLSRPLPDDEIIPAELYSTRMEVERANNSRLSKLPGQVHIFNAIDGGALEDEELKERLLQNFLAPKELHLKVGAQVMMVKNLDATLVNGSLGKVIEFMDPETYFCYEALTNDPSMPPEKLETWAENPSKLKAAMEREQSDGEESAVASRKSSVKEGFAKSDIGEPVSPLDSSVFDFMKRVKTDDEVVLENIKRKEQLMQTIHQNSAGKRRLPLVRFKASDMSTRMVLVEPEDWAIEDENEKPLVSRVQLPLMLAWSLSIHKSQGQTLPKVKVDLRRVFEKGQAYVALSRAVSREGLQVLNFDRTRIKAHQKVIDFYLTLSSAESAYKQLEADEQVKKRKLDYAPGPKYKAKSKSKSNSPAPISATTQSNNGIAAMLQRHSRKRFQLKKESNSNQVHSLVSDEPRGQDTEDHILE
# experiment notes: EMSA; no ATP, 5 mM Mg2+; 35 mM Tris-HCl pH 7.5, 1 mM DTT, 5 mM MgCl2, 60 mM KCl, 0.1 mg/ml BSA, no ATP, 30 min at 30 C; 5 nM ssDNA
# run conditions: protein: recombinant; tags: N-terminal superfolder GFP; Ni-NTA purified; label: 5' Alexa647
assay readout: Kd
Remember to follow the number with its unit.

Q. Which value of Kd has been reported for GCTAGCAGTAGCCAGCATCGAACGTACGATCGGTAACGTA (ssDNA) [40-nt ssDNA] in the records?
A. 12.1 nM
